src = ChEMBL document CHEMBL4619765

- PROTOCOL_NOTES: Inhibition of complex 1 in bovine heart mitochondrial membranes in presence of NADH
- Set-up: species or system Bos taurus
IC50 strictly less than 2000 nM = label 1. Otherwise label 0.

COMPOUND	CLASSIFICATION
COc1cc2c(cc1OC)[C@@H]1[C@H](O)c3ccc4c(c3O[C@@H]1CO2)C[C@H](C(C)CO)O4 (mixture of isomers)	label 1
COc1cc2c(cc1OC)[C@@H]1C(=O)c3ccc4c(c3O[C@@H]1CO2)C[C@H](C(C)(O)CO)O4 (stereo not given in full)	label 1
COc1cc2c(cc1OC)[C@@H]1C(=O)c3ccc4c(c3O[C@@H]1CO2)C(O)C(O)C(C)(C)O4 (mixture of isomers)	label 0
COc1cc2c(cc1OC)[C@]1(O)C(=O)c3ccc4c(c3O[C@@H]1CO2)C[C@H](C(C)CO)O4 (mixture of isomers)	label 0
C=C(C)[C@H]1Cc2c(ccc3c2O[C@@H]2COc4cc(OC)c(OC)cc4[C@@H]2[C@@H]3O)O1	label 1
COc1cc2c(cc1OC)[C@]1(O)[C@H](O)c3ccc4c(c3O[C@@H]1CO2)C[C@H](C(C)(C)O)O4	label 0
C=C(C)CCc1c(O)ccc2c1O[C@@H]1COc3cc(OC)c(OC)cc3[C@@H]1C2=O	label 1
C=C(C)C(=O)Cc1c(O)ccc2c1O[C@@H]1COc3cc(OC)c(OC)cc3[C@]1(O)C2=O	label 0
C=C(C)C(=O)Cc1c(O)ccc2c1O[C@@H]1COc3cc(OC)c(OC)cc3[C@@H]1C2=O	label 0
COc1cc2c(cc1OC)[C@@H]1[C@H](O)c3ccc4c(c3O[C@@H]1CO2)C[C@H](C(C)(C)O)O4	label 1
COc1cc2c(cc1OC)[C@]1(O)C(=O)c3ccc4c(c3O[C@@H]1CO2)C[C@H](C(C)(C)O)O4	label 0
COc1cc2c(cc1OC)[C@@H]1C(=O)c3ccc4c(c3O[C@@H]1CO2)C[C@H](C(C)(C)O)O4	label 1
C=C(CO)[C@H]1Cc2c(ccc3c2O[C@@H]2COc4cc(OC)c(OC)cc4[C@]2(O)[C@@H]3O)O1	label 0
C=C(CO)[C@H]1Cc2c(ccc3c2O[C@@H]2COc4cc(OC)c(OC)cc4[C@@H]2[C@@H]3O)O1	label 1
COc1cc2c(cc1OC)[C@@H]1C(=O)c3ccc4c(c3O[C@@H]1CO2)CC(O)C(C)(C)O4 (mixture of isomers)	label 1
